Values compiled from patent US20230295313A1.

Reported % inhibition is given for each of the following binders.
- testTarget: biotin-labeled human IL1RAP (human) (UniProt Q9NPH3)
- Sequence (Q9NPH3 21-367 limits assumed): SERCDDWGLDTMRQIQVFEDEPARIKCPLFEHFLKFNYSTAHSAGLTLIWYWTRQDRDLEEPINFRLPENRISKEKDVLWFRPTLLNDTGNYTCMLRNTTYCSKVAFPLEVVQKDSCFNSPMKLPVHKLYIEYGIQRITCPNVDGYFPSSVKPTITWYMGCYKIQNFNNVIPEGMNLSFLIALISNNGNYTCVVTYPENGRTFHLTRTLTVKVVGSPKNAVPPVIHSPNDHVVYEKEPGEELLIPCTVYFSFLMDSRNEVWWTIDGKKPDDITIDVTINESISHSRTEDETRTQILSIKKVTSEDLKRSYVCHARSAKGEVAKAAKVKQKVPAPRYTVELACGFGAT
- protocolDescription: competition ELISA; competitor: capture mAb067 coated; biotin-hIL1RAP

The following binders have reported results that may help.
binder	% inhibition
murine mAb016 (antibody, V domains shown) VH: QVQLQQPGAELVRPGSSVKLSCKASGYTFTSYWMDWVKQRPGQGLEWIGNIYPSDSATHYNQKFKDKATLTIDKSSSTAYMQLSSLTSEDSAVYYCARDYYGSIGMDSWGQGTSVTVSS VL: DIQMTQSPSSLSASLGERVSLTCRASQEISDYLSWLQQKPDGTIKRLIYAASTLDSGVPKRFSGSRSGSDYSLTISSLESEDFADYYCLQYASFPWTFGGGTKLEIK	76%
murine mAb067 (antibody, V domains shown) VH: QVKLHQSGAELAKPGASVKMSCKASGYTFNSYWIHWVKQRPGQGLEWIGYNNPTSGYSEYNQKFTDKATLSADKSSSTAYMQLSSLTSEDSAVYYCVREYGDLFAYWGQGTLVTVSA VL: NIVMTQSPKSMSMSVGERVTLSCKASENVGYSVSWFQQKPDQSPKLLIYGASNRYTGVPDRFTGSGSATDFTLTISTVQAEDLADYHCGQIYIYPYTFGGGTKLEIK	87%

Pending binder:
Ask | Identify the reported % inhibition for the following entry. murine mAb001 (antibody, V domains shown) VH: QVQLQQPGAELVRPGSSVKLSCKASGYTFTSYWMDWVKQRPGQGLEWIGNIYPSDSKTHYNQKFKDKATLTVDKSSSTAYMQLSSLTSEDSAVYYCARDYYGSIGMDYWGQGTSVTVSS VL: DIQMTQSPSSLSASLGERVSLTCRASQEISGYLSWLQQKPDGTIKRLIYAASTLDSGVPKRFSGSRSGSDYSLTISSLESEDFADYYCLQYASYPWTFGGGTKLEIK
Reply | 76%
